Source of measurements: ChEMBL document CHEMBL1949516

# Assay Remarks: Partition coefficient, log k of the compound
# Assay type: physicochemical
# Measurement Context: octanol/water
Measurement Label: log K
Answers are plain numbers.

Before answering, review these 2 worked examples.
Query :: Determine its reported log K: NC(=O)c1cnccn1 [PYRAZINAMIDE]
Result :: 0.0514

Query :: Give the reported log K for this compound. `N#Cc1cnc(C#N)c(N2CCOCC2)n1`
Result :: 0.583

For each entry beneath this line, provide reported log K.
1. CCCCNc1nc(C#N)cnc1C#N
2. CNc1nc(C#N)cnc1C#N
3. CCCCCCCCNc1nc(C#N)cnc1C#N
4. CCCNc1nc(C#N)cnc1C#N

Result ::
0.7088
0.5859
1.1953
0.6497

For the 6 compounds below, give their log K values.
1. CCCCCCCNc1nc(C#N)cnc1C#N
2. CCCCCNc1nc(C#N)cnc1C#N
3. CCN(CC)c1nc(C#N)cnc1C#N
4. CCNc1nc(C#N)cnc1C#N
5. N#Cc1cnc(C#N)c(NC2CCCC2)n1
6. CN1CCN(c2nc(C#N)cnc2C#N)CC1

Result ::
1. 1.0243
2. 0.7901
3. 0.6685
4. 0.6146
5. 0.7273
6. 0.5946

* * *

# Assay Remarks: Partition coefficient, log k of the compound
# Format: physicochemical
# Measurement Context: octanol/water
Give measured log K for each item. Keep answers brief.
Numbers only.

Query :: Identify log K associated with the compound `N#Cc1cnc(C#N)c(Cl)n1`
Result :: 0.5792

Query :: // fetch log K given entry `N#Cc1cnc(C#N)c(NC2CCCCCC2)n1`
Result :: 0.8789

Query :: Give reported log K value for `CCCCCCNc1nc(C#N)cnc1C#N`
Result :: 0.9133

---
Query :: Find the measured log K of `N#Cc1cnc(C#N)c(NC2CCCCC2)n1` and report it.
Result :: 0.7896
